test: yeast display, Sf9 membrane polyspecificity reagent, FACS + sequencing; frameworks hold sequencing errors
Outcome measure: polyreactivity (PSR sort gate)

Below, each entry is followed by its recorded polyreactivity (PSR sort gate) result.
QVQLVESGGGLDQAGGRLRLSCAASGITFGRNTMGWYRQSPGKERELVAAIDSGGNTYADSVKGRFTISRDNAKNTVYLQMNSLKPEDTAVYYCAVDGGEFSSYGYWGQGTQVTVSS
low polyreactivity
QVQLVESGGGLVQAGGSLRLSWAASGSIFQYVYAMGWYRQAPGKERELVATITWSGGSTYYSDSVKGRFTISRDNAKNTVYLQMNSLKPEDTAVYYCAAESIYYPVAQYYYSFEYWGQGTQVTVSS
low polyreactivity
QVQLVESGGVLVQAGGSLRLSCPASGRIYDGYAMGWYRQAPGKERELVAAINSNDGTTYYADSVKGRFTISRDNAKNTVYLQMNSLKPEDTAVYYCAKVSYNAWSYGPQMDYWGQGTQVTVSS
low polyreactivity
QVQLVESGGGLVQAGGSLRLSCAASGNTFDGNAMGWYRQAPGQERELVAAINYSGASTSYADSVKGRFTISRDNAKNTVYLQMNSLKREDTAVYYCAADYPPLYRKYDYWGHGTQVTVSS
low polyreactivity
QVQLVESGGGLVQAGGSLRLSCAASGRTFERYAMGWYRQAPGKERELVADISSSGSTNYADSVKGRFTISRDNAKNTVYLQMNRLNPEDTAVYYCAADYWRHWYWDVVEFDYWGQGTQVTVSS
high polyreactivity
QVQLVESGGGLLQAGGSLRLSCAASGSTFTAYAMGWYRQAPGKERELVADISDSGGSTYYADSEKGRFTISRDNAKNTVYLQINSLKPEDTAVYYCAVHVRAFVVSKFDSRGQGTQVTVSS
low polyreactivity
QVQLVESGGGLVQAGGSLRLSCAASGITFRYYTMGWYRQAPGKERELVAAISRSGGSTYYADSVKGRFTISRDNAKNNVYLQMNSLKPEDTAVYYCAVDYTYDMDYWGQGTQVTVSS
high polyreactivity
QVQLVESGGGLVQAGGSLRLSCAASGSIFQWNAMGWYRQAPGKERELVAAMSWSGTRTYYADSVKGRFTISRDNAKNTVYLQMNSLKPEDTAVYDCAFRGGKPTYRYDYWGQGTQVTVSS
high polyreactivity

What value of measured polyreactivity (PSR sort gate) is listed for QVQLVESGGGLVQAGGSLRLSCAASGRTFFLYAMGWYRQAPGKEREFVATISYGGGSTYYADSVKGRFTISRDNAKNTVYLQMNSLKPEDTAVYYCNALNTSQYAEGTSDYDGNMGYWGQGTQVTVSS ?
low polyreactivity

Query (sequence): QVQLVESGGVLVQAGGSLRLICAASVFTFYSYAIGWYRQATGTERELVAGISRSGGSTYYADSVKGRFTISRDNAKNTVYLHMNRLKPEDTAVYYCNVRLRKKIQNSKYDYWGQGTQVSVSS ; field requested: polyreactivity (PSR sort gate)
high polyreactivity

What value of polyreactivity (PSR sort gate) has been reported for the following sequence? QVQLVESGGGLVQAGGSLRLSSAASGFTFPVYAMGWYRPATGKESELVAAISRRGGRTYYADSVKGRFTISRDNAKNRVYLQMNCLKPEDSAVYYCNKGETLYGSVPYDYWGQGTQLTVSS
high polyreactivity

---

test: yeast display, Sf9 membrane polyspecificity reagent, FACS + sequencing; frameworks hold sequencing errors
Outcome measure: polyreactivity (PSR sort gate)

QVQLVESGGGLVQAGGSLRLSCAASGRTFKNNAMGWYRQAPGKERELVAAISSNGGSTYYADSVKGRFTISRDNAKNTVYLQMNSLKPEDTAVYYCAADRTIVEYYYWGQGTQVTVSS
high polyreactivity
QVQLVESGGGLVQAGGSLRLSCAASGSTFSENAMGWYRQAPGKERELVAAISWGGGSTYYADSVKGRFTISRDNAKNTVYLQMNSLKPEDTAVYYCIADVFDDYGYFESDYWGQGTQVTVSS
low polyreactivity
QVQLVESGGGLVQAGGSLRLSCAASGRNFQWYSMGWSRQAPGKEREFVAAIRYSGGSTYYADSVKGRFTISRDNAKNTVYLQMNSMKPEDTSVYYCNARTGFLARNKRFGYWGQGTQVSVSS
high polyreactivity
QVQLVESGGGLVQAGGSLRLSCAASGIIFFSNAMGWYRQAPGKERELVAAIDDSDGVTYYADSVKGRFTISRDNAKNTVYLQMNSLKPEDTAVYYCAAVDGWTYTGSDYWGDGTQVTVSS
low polyreactivity
QVQLVDSGGGLVQAGGSLRLSCAASGSIFGYYTMGWYRQAPGKERELVAAITSGGSTKYADSVKGRITISRDNAKNTVYLQMNCLKPEDTAVYYCAKVSYYPWRYDYWGPGTQVTVSS
low polyreactivity

I am curious: what polyreactivity (PSR sort gate) value has been reported for QVQLVESGGGLVQAGGSLRLSCAASGSTFVGNAMGWYRHAPGKEREMVATISNSGGRTYYADSVKGRFTISRDNAKNTVYLQLNSLKPEDTEVYYCAADHPAFGPGYSFDYWGQGTQVTVSS ?
low polyreactivity

What value of polyreactivity (PSR sort gate) has been reported for the following sequence? QVQHVESGGGLVQARGSLRLSCSASGGTFSVYPMGWSRQAPVKERELLADISWSDASTYYADSVKGRFTISRDNAKNTVYLQMNSLKPEDTAVYYCAVSRQSGKGGSKELNDYWVQGTQVTVSS
low polyreactivity

Which polyreactivity (PSR sort gate) is listed for QVQLVESGGGLVQAGGSLRLTCAASGGTFYANAMGWYRQAPGTERELVAAITSGGSTNYADSVKGRFTISRDNAKNTVYLQMNSLKPEDTAVYYCNAAAQRRYWHSYFRRYDYWGQGTQVTVSS ?
low polyreactivity

Dear colleague, I am looking for the recorded polyreactivity (PSR sort gate) of the following sequence: QVQLVESGGGLVQAGGSLRLSCAASGRTFERYAMGWYRQAPGKERELVAAISWSGSSTYYADSVKARFTISRDISKNTVYLHMNSLKPEDTAVYYCNALFQQRYGYWGQGTQVTVSS
low polyreactivity

Which polyreactivity (PSR sort gate) reading was recorded for the sequence QVQLVESGGGLVQAGGSLRLSCAASGSTFVGYAMGWYRQAPGKERELVAAISRSGGRTYYADSVKGRFTISRDNAKNTVYLQMNSLKPEETAVYYCYPYYIASTFDYWGQGTQVTVSS ?
high polyreactivity

Reported polyreactivity (PSR sort gate), sequence QDQLVESGGGLVQAGGSLRLSCAATASIFVTYAMGWYRQAPGQERELVAAINYSGGSTYYADSVKGRFTISRDNAKNTFYLQMNSLKPEDTAVNYCAADERVDQGWIRMDYWGQGTQVTVSS : ____
low polyreactivity

Which polyreactivity (PSR sort gate) value belongs to QVQLVESGGGLGQAGGSLRLSCAASGRILKYYDMGWYRQAPGKERELVAAISVSGTSTYYADSVKGRFTISRDNAKNTVYLQMNSLKPEDTAVYYCATATGRYSFDYWGQGAQVTVSS ?
low polyreactivity

Tell me the measured polyreactivity (PSR sort gate) of QVQLVESGGCLVQAGGSLRLSCAASGITFVSNVMGWYRQATGKEREFVAAITGRGDTTYADSVKGRFTISRDNAKNTVYLQMNSLKPEDTAVYYCAAEYSVPYRGWDGYEYWGQGTQVTVSS , please.
low polyreactivity

Look up polyreactivity (PSR sort gate) for this sequence: QVQLVESGGGLVQAGGSLRLSCAASGSIFNYYAMGWYRQAPGKEMELVAGITTSGGYTYYADSVKGRFTISSDNAKNTVYLQMNSLKPEDTAVYYCAAYDYISSTYFLDDYWGQGTQVTVSS
low polyreactivity

I'd like to know its polyreactivity (PSR sort gate). The sequence in question is QVQLVESGVGLVQAGGSLRLSCASSGFIFNYNTMGWYRQAPGKETELVAAISSSGGSTYYADSVKGRFTISRDNAKNTVYLQMNSLKPEDTAVYYCGAGANAQRVPNGDYWGQGTQVTVSS
low polyreactivity

Which polyreactivity (PSR sort gate) is listed for QVQLVESVGGLVQAGGSLRLSCAASGLTCYGKTMGWYRQAPGKDRELVAAISFDGGNTYADSVKGRFTISRDNAKNTVYLQMNSLKPEDTAVYYDYWGQGNQVTVSS ?
low polyreactivity

Entry QVQLVESGGGLVQAGGSLRLSCAASGIIFRYYVMGWYRQAPGKERELVAAISWSGGSTYYADSVKGRFTISRDNAKNTVYLQMNSLKPEDTAVYYCAASRGILASEFGYWGQGTQVTVSS has what polyreactivity (PSR sort gate)?
high polyreactivity

Query (sequence): QVQLVESGGGLVQAGGSLRLSCAASGSIFSTYAMGWYRQAPGKERELVAAISVSGSSTYYADSVKGRFTISRDNAKNTVYLQMNSLKPEDTAVYYCAADVPYGASIISYDYWGQGTQVTVSS ; field requested: polyreactivity (PSR sort gate)
low polyreactivity

# get_value(readout='polyreactivity (PSR sort gate)', item= QVQLVESGGGLVQAGGSLRLSCAASGFIFPGNVMGWYRQAPGKERELVAAITWSGGSTYYADSVKGRFTISRDNAKNTVYLQMNSLKPEDTAVYYCNADAFSFFGYLERMEYWGQGTLVTVSS )
low polyreactivity

// polyreactivity (PSR sort gate) lookup, key: QVQLVETGGGLVQAGGSLRLSCAASGCTFKYNTMGWYRQAPGKERELVAAITSGGGSTNYADSVKGRFTISRDNAKNTVYLQMNSLKPEDTAVYYCAAYRRNTYWGQVTQVTVSS
high polyreactivity

Give the measured polyreactivity (PSR sort gate) of QVQLVESGGGLVQARGSLRLSSAATGLIILAYAMGWYRQAPGKERELVAAISTSGSTYYADSVKGRFTISRDNAKNTVYLQMNSLKPEDTAVYYCAAYYRWSVTYYDWGQGTQGTVSS .
high polyreactivity
